For each record, write down the corresponding normalized SmoIP GFP fluorescence.
tested on: Drosophila S2 cl14 SmoIP sensor cells; assay: normalized SmoIP GFP fluorescence (untreated unstimulated = 0%, untreated Hh-stimulated = 100%); higher = more Smo activation sensor fluorescence; conditions: stimulation: mock conditioned medium (-Hh); compound concentration: 2 uM; 24 h;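 note: flow cytometry read-out as median GFP intensity of gated cells, compounds added 30 min before Hh-conditioned or mock medium, mock-treated cells serving as unstimulated baseline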
Please append the unit to your numeric answer.

{"Compound": "CN(C)C(=O)Nc1cccc(-c2ccc(N(C)C)cc2)c1", "Result": "18.1%"}
{"Compound": "CCOc1cc([C@@H](CS(C)(=O)=O)N2C(=O)c3cccc(NC(C)=O)c3C2=O)ccc1OC", "Result": "-14.5%"}
{"Compound": "Cc1ccccc1C(=O)Nc1ccc(C(=O)N2CCCC(N(C)C)c3ccccc32)cc1 (centres undefined)", "Result": "-2.08%"}
{"Compound": "C=C(C)[C@@H]1CC[C@]2(C(=O)O)CC[C@]3(C)[C@H](CC[C@@H]4[C@@]5(C)CC[C@H](O)C(C)(C)[C@@H]5CC[C@]43C)[C@@H]12", "Result": "-2.93%"}
{"Compound": "COc1c(C)cnc(Cn2cnc3c(Cl)nc(N)nc32)c1C", "Result": "34.5%"}
{"Compound": "Cc1cc(Cn2cnc3c2CC(C(=O)O)N(C(=O)C(c2ccccc2)c2ccccc2)C3)ccc1N(C)C (centres undefined)", "Result": "-4.13%"}
{"Compound": "C/C(=N\\NC(=S)N1CCC1)c1ccccn1", "Result": "30.1%"}
{"Compound": "CC(C)[C@H](O)C(=O)N[C@@H](C)C(=O)N[C@@H]1C(=O)N(C)CCc2ccccc21", "Result": "13.8%"}

Exam item: Need normalized SmoIP GFP fluorescence, item "CN(C)c1ccc(-c2nc3ncc(Cl)c(N4CCN(CC(=O)Nc5nccs5)CC4)c3[nH]2)cc1"
Marked response: 6.74%
